Test system: Erysiphe graminis f. sp. tritici
experimental-details: Test L: wheat powdery mildew, preventive spray on wheat seedlings
experimental-context: 40 ppm (*)
Marks after values point to notes of the source that are not given here.
metric: Test L disease control rating

For orientation, consider the following solved cases.
compound="CCC(C)Cn1c(-c2c(F)cccc2F)c(Cl)nc(-n2ccnn2)c1=O (stereo not drawn)" target_or_test_system="Erysiphe graminis f. sp. tritici" observed_measurement="0* %"
compound=CC(C)Cn1c(-c2ccccc2F)c(Cl)nc(-n2cccn2)c1=O target_or_test_system="Erysiphe graminis f. sp. tritici" observed_measurement="98* %"
compound="O=c1c(-n2cccn2)nc(Cl)c(-c2c(F)cccc2F)n1CC1CCCO1 (stereo not drawn)" target_or_test_system="Erysiphe graminis f. sp. tritici" observed_measurement="0* %"
compound=CC(C)(C)Cn1c(-c2c(F)cccc2F)c(Cl)nc(-n2cccn2)c1=O target_or_test_system="Erysiphe graminis f. sp. tritici" observed_measurement="98* %"
compound=C#CCn1c(-c2c(F)cccc2F)c(Cl)nc(-n2cccn2)c1=O target_or_test_system="Erysiphe graminis f. sp. tritici" observed_measurement="90* %"
compound=CC(C)Cn1c(-c2ccccc2)c(Cl)nc(-n2cccn2)c1=O target_or_test_system="Erysiphe graminis f. sp. tritici" observed_measurement="0* %"
compound=CCC(CC)n1c(-c2c(F)cccc2F)c(Cl)nc(-n2cccn2)c1=O target_or_test_system="Erysiphe graminis f. sp. tritici" observed_measurement="98* %"
compound=CC(C)Cn1c(-c2ccc(OC(F)(F)F)cc2)c(Cl)nc(-n2cncn2)c1=O target_or_test_system="Erysiphe graminis f. sp. tritici" observed_measurement="0* %"

# map each compound to its Test L disease control rating
1. CC(C)Cn1c(-c2ccc(C(F)(F)F)cc2F)c(Cl)nc(-n2cncn2)c1=O
2. CC(C)Cn1c(-c2c(F)cccc2F)c(Cl)nc(-c2cccnc2)c1=O
3. CC(C)Cn1c(-c2ccccc2Cl)c(Cl)nc(-n2cncn2)c1=O
4. O=c1c(-n2cncn2)nc(Cl)c(-c2c(F)cccc2F)n1CC1CCCO1 (stereo not drawn)
5. CC(C)Cn1c(-c2cccnc2)c(Cl)nc(-n2cncn2)c1=O
6. CC(C)Cn1c(-c2cccc(Br)c2)c(Cl)nc(-n2cncn2)c1=O
7. CCCCn1c(-c2c(F)cccc2F)c(Cl)nc(-n2cccn2)c1=O

1. 0* %
2. 0* %
3. 0* %
4. 0* %
5. 0* %
6. 0* %
7. 98* %

====

Hi there, I'd appreciate the recorded Test J disease control rating for every entry that follows.
Test system: Septoria tritici
experimental-details: Test J: wheat leaf blotch, preventive spray on wheat seedlings
Assay type: in vivo
experimental-context: 200 ppm
Answers are plain numbers, in %.

// worked examples, Test J disease control rating included
molecule="CCC(C)n1c(-c2c(F)cccc2F)c(Cl)nc(-n2cncn2)c1=O (centres unmarked)" unit_info=% observed_measurement=32
molecule=COC(=O)c1ccc(-c2c(Cl)nc(-n3cccn3)c(=O)n2CC(C)C)cc1 unit_info=% observed_measurement=96
molecule=CC(C)Cn1c(C(C)(C)C)c(Cl)nc(-n2cncn2)c1=O unit_info=% observed_measurement=3
molecule=CC(C)n1c(-c2c(F)cccc2F)c(Cl)nc(-n2cncn2)c1=O unit_info=% observed_measurement=100
molecule="CCC(C)Cn1c(-c2c(F)cccc2F)c(Cl)nc(-n2ccc(C(F)(F)F)n2)c1=O (centres unmarked)" unit_info=% observed_measurement=90
molecule="CCC(C)Cn1c(-c2c(F)cccc2F)c(Cl)nc(-n2nc(C)cc2C)c1=O (centres unmarked)" unit_info=% observed_measurement=15
molecule=CC(C)Cn1c(-c2c(F)cccc2C(F)(F)F)c(Cl)nc(-n2cccn2)c1=O unit_info=% observed_measurement=74

Now consider the entry below.
For CC(C)Cn1c(-c2c(F)cccc2F)c(Cl)nc(-c2cnn(C)c2)c1=O the molecule record lists Test J disease control rating as 3
